Reported IC50 values are given for each entry in this list.
Target: human VPAC1 (Homo sapiens, UniProt P32241)
Sequence (P32241 31-457): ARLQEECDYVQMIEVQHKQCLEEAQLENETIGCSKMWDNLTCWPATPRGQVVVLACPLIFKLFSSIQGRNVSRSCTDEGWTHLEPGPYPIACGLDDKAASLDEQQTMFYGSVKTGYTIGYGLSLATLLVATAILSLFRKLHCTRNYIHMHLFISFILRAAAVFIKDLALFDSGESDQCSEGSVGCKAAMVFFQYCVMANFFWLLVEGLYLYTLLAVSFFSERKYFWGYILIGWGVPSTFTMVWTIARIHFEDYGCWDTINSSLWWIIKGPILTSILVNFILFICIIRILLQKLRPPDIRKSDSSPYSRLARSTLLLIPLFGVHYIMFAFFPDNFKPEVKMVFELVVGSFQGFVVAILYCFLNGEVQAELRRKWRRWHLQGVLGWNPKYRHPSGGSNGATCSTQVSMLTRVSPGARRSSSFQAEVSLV
Experiment: Filter binding assay, membranes of cells transiently transfected with human VPAC1, 125I-labeled VIP tracer (Table 2)
Design: expressed in transfected cells
Conditions: read-out: Human VPAC1 Receptor Binding
Where no end group is shown, it is not given here. [ ]: non-standard residue; d: D form. The star is where a group is joined. hArg = N=C(N)NCCCC[C@H](N)C(=O)O; Orn = NCCC[C@H](N)C(=O)O; Hexanoyl = CCCCCC(=O)*

Use these answered entries as a reference point.
Hexanoyl-HSDAVFTDNYTRL[hArg][Orn]QVAAKKYLQSIKNKRYGGPSSGAPPPS [Agonist P308]	0.262 µM
Hexanoyl-HVDAVFTDNYTRLRKQVAAKKYLQSIKNKRYGGPSSGAPPPS [Agonist P99]	0.394 µM
Hexanoyl-HSDAVFTDNYTRLR[Orn]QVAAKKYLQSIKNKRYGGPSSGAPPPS [Agonist P307]	0.274 µM
Hexanoyl-HSDAVFTDNYTRLQKQVAAKQYLQSIKNKRYGGPSSGAPPPS [Agonist P253]	2.16 µM

Now consider the entry below.
# input substance: HSDAVFTDNYTRLRKQVAAKKYLQSIKRGGPSSGAPPPS [Agonist P82] ; wanted: its IC50 0.195 µM

====

target: human VPAC1 (Homo sapiens, UniProt P32241); test: DiscoveRx cAMP in vitro potency, CHO-PO cells transiently transfected with human VPAC1 receptor; assay type: cell-based; set-up: expressed in transfected cells; host or cells: CHO-PO, transient (Lipofectamine); conditions: cAMP generation; mean of two independent runs; read-out: Human VPAC1 Receptor: DiscoveRx EC50
Where no end group is shown, it is not given here. [ ]: non-standard residue; d: D form. hArg = N=C(N)NCCCC[C@H](N)C(=O)O
Reported pEC50 by item:
Schema: pEC50 number; meaning minus log10 of the concentration expressed in molar units.

H-HSDLVFTDNYTRLRKQVAAKKYLQSIKNKRYGGPSSGAPPPS [Agonist P55]	6.87

I have this substance here, HSDAVFTDNYTRLRKQVAAKKYLQSIKNKIYGGPSSGAPPPS [Agonist P76] , and I need its recorded pEC50. 9.10

Try the substance HSDAVFTDNYTRLRKQVAAKKYLQSIRNKRYGGPSSGAPPPS [Agonist P23] 9.05

Now try H-HSDAVFTDNYTRFRKQVAAKKYLQSIKNKRYGGPSSGAPPPS [Agonist P26] . 9.05

Same for H-HSDAVFTDNYTRLRKQVAAKKYLQSI[hArg]NKRYGGPSSGAPPPS [Agonist P22] 9.05

One more substance: HSDAVLTDNYTRLRKQVAAKKYLQSIKNKRYGGPSSGAPPPS [Agonist P64] 6.66

Quick one: HSDAVFTDNYTRLRKQVAAKKYLQSIKNKRF [Agonist P34] 9.10
